// provenance: patent US20160326240A1

- system.tested: T1, Rat RGMa-His (rat) (UniProt D4A188)
- T1 sequence: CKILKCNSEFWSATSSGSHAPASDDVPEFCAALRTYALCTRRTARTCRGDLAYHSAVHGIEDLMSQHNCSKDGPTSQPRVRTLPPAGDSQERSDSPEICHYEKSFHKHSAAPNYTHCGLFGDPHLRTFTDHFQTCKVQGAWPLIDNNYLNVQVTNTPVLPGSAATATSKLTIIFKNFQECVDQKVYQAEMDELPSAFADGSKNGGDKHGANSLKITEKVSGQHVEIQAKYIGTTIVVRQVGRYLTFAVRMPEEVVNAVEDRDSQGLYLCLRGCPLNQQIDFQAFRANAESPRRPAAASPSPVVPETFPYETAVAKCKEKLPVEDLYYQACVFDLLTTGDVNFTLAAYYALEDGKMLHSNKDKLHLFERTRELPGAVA
- run.description: BIAcore
Reported Kd is given for each of the following binders.
Return type: number; implicit unit nM.

Example entries begin here.
| binder | Kd (nM) |
| --- | --- |
| AE12-1-H (antibody, V domains shown) VH: EVQLVQSGAEVKKPGASVKVSCKASGYTFTSHGISWVRQAPGQGLDWMGWISPYSGNTNYAQKLQGRVTMTTDTSTSTAYMELSSLRSEDTAVYYCARVGSGPYYYMDVWGQGTLVTVSS VL: QSALTQPRSVSGSPGQSVTISCTGTSSSVGDSIYVSWYQQHPGKAPKLMLYDVTKRPSGVPDRFSGSKSGNTASLTISGLQAEDEADYYCHSYAGTDTLFGGGTKVTVL | 8.6 |
| AE12-1-L (antibody, V domains shown) VH: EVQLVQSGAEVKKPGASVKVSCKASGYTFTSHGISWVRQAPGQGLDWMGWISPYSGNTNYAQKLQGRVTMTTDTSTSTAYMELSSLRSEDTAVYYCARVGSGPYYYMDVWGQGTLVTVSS VL: QSALTQPRSVSGSPGQSVTISCTGTSSSVGDSIYVSWYQQHPGKAPKLMLYDVTKRPSGVPDRFSGSKSGNTASLTISGLQAEDEADYYCLSYAGTDTLFGGGTKVTVL | 12 |
| AE12-1-V (antibody, V domains shown) VH: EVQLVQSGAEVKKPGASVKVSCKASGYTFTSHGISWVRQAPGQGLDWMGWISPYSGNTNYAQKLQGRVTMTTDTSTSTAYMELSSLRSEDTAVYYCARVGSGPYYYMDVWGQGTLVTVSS VL: QSALTQPRSVSGSPGQSVTISCTGTSSSVGDSIYVSWYQQHPGKAPKLMLYDVTKRPSGVPDRFSGSKSGNTASLTISGLQAEDEADYYCVSYAGTDTLFGGGTKVTVL | 15 |
| AE12-1-I (antibody, V domains shown) VH: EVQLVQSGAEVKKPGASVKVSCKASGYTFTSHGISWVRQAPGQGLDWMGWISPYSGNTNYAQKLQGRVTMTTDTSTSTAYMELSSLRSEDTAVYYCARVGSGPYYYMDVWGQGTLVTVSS VL: QSALTQPRSVSGSPGQSVTISCTGTSSSVGDSIYVSWYQQHPGKAPKLMLYDVTKRPSGVPDRFSGSKSGNTASLTISGLQAEDEADYYCISYAGTDTLFGGGTKVTVL | 12 |

Please look at the following binder next.
If you can, please state the reported Kd value of AE12-1-K (antibody, V domains shown) VH: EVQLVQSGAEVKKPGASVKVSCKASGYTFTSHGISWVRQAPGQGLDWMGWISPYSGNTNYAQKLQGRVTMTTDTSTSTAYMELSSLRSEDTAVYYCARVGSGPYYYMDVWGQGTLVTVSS VL: QSALTQPRSVSGSPGQSVTISCTGTSSSVGDSIYVSWYQQHPGKAPKLMLYDVTKRPSGVPDRFSGSKSGNTASLTISGLQAEDEADYYCKSYAGTDTLFGGGTKVTVL .
17
